- EXPERIMENT_DESCRIPTION: Bioavailability of fluorescent-labeled HA PulmoSpheres, plasma peptide by fluorometry
- Type: in vivo
- CONDITION_CONTEXT: mouse, in vivo; i.n., f-HA-Pul in perflubron, mice
- Experimental: A formulation comprising fluoroscein-HA peptide (20% wt/wt) PulmoSpheres (f-HA-Pul) prepared as in Example IV was suspended in perflubron. Metofane anesthetized mice were inoculated intranasally (i.n.) with a […] volume of f-HA-Pul in perflubron, corresponding to […] of peptide dose. Blood samples were collected by ocular bleeding in heparin-treated tubes, the plasma was separated and the concentration of the peptide was measured by fluorometry. […]
Residues, ends and D or L forms follow the SMILES beside them. *: point of attachment. 5FAM = O=C1OC2(c3ccc(O)cc3Oc3cc(O)ccc32)c2ccc(C(=O)*)cc21
OBSERVATION_TYPE: Tmax (min)
Please respond with the number in min and leave the unit unwritten.

Data point: CC[C@H](C)[C@H](NC(=O)[C@H](CCC(=O)O)NC(=O)[C@H](Cc1ccccc1)NC(=O)[C@H](CCCNC(=N)N)NC(=O)[C@H](CCC(=O)O)NC(=O)[C@H](Cc1ccccc1)NC(=O)[C@H](CO)NC(=O)c1ccc2c(c1)C(=O)OC21c2ccc(O)cc2Oc2cc(O)ccc21)C(=O)N[C@@H](Cc1ccccc1)C(=O)N1CCC[C@H]1C(=O)N[C@@H](CCCCN)C(=O)N[C@@H](CCC(=O)O)C(=O)O [f-HA peptide] (5FAM-SFERFEIFPKE-OH; N-terminus and C-terminus assumed) ; Tmax = 20

Where do the numbers come from? From patent US6630169B1.
